Test system: PSMA-expressing LNCaP cancer xenografts
Settings: mouse, in vivo
Measured Blood: Salivary ratio, listed per entry for reference.
readout-type: Blood: Salivary ratio

[[record]]
compound = "O=C(O)CSC[C@H](NC(=O)N[C@@H](CCCCNC(=O)[C@H](Cc1c2ccccc2cc2ccccc12)NC(=O)[C@H]1CC[C@H](CNC(=O)CN2CCN(CC(=O)O)CCN(CC(=O)O)CCN(CC(=O)O)CC2)CC1)C(=O)O)C(=O)O [68Ga-HTK03177, metal not drawn]"
readout_type = "Blood: Salivary ratio"
experimental_value = 3.14

[[record]]
compound = "O=C(O)COC[C@H](NC(=O)N[C@@H](CCCCNC(=O)[C@H](Cc1c2ccccc2cc2ccccc12)NC(=O)[C@H]1CC[C@H](CNC(=O)CN2CCN(CC(=O)O)CCN(CC(=O)O)CCN(CC(=O)O)CC2)CC1)C(=O)O)C(=O)O [68Ga-HTK03187, metal not drawn]"
readout_type = "Blood: Salivary ratio"
experimental_value = 4.27

[[record]]
compound = "O=C(O)CCC[C@H](NC(=O)N[C@@H](CCCCNC(=O)[C@H](Cc1c2ccccc2cc2ccccc12)NC(=O)Cc1ccc(CNC(=O)CN2CCN(CC(=O)O)CCN(CC(=O)O)CCN(CC(=O)O)CC2)cc1)C(=O)O)C(=O)O [68Ga-HTK04036, metal not drawn]"
readout_type = "Blood: Salivary ratio"
experimental_value = 3.68

[[record]]
compound = "O=C(O)CCC[C@H](NC(=O)N[C@@H](CCCCNC(=O)[C@H](Cc1c2ccccc2cc2ccccc12)NC(=O)Cc1cccc(CNC(=O)CN2CCN(CC(=O)O)CCN(CC(=O)O)CCN(CC(=O)O)CC2)c1)C(=O)O)C(=O)O [68Ga-HTK04037, metal not drawn]"
readout_type = "Blood: Salivary ratio"
experimental_value = 3.55

[[record]]
compound = "O=C(O)C[C@H](NC(=O)N[C@@H](CCCCNC(=O)[C@H](Cc1c2ccccc2cc2ccccc12)NC(=O)[C@H]1CC[C@H](CNC(=O)CN2CCN(CC(=O)O)CCN(CC(=O)O)CCN(CC(=O)O)CC2)CC1)C(=O)O)C(=O)O [68Ga-HTK03161, metal not drawn]"
readout_type = "Blood: Salivary ratio"
experimental_value = 5.08

